Assay: NCI Yeast Anticancer Drug Screen. Data for the cln2 rad14 strain (AID 165)
Conditions: S. cerevisiae cln2 rad14 strain, at 50.0 µM
The panel holds about 79,000 compounds, 15% with a hit somewhere; the sample as a whole holds those more often. The source made the active and inactive calls. Rule as the data show it: active = growth inhibition above about 70%; inactive = the rest.
# valid calls are active, inactive; nothing else

Could you please tell me the result logged for `CC(C)(Cl)[N+](=O)[O-]` in this assay? inactive

Could you please tell me the result logged for `COP(=O)(O)NC(C)=O` in this assay? inactive

Could you please tell me the result logged for CN1CC(NC(=O)N(CCCl)N=O)CC2c3cccc4c3c(cn4N=O)CC21 (stereo not given) in this assay? inactive

Could you please tell me the result logged for `C#CCOC(=O)C=[N+]=[N-]` in this assay? inactive

Now take the following compound into account.
Could you please tell me the result logged for `CCC[CH2][Sn]([CH2]CCC)([O]C(=O)CCC(C)=O)[O]C(=O)CCC(C)=O` in this assay? active
